Tested on: SK-MEL-28 melanoma
Assay: NCI-60 one-dose screen, 48 h
Details: 10 µM unless noted
Protocol: Growth inhibition of the SK-MEL-28 human tumor cell line is measured as a screen for anti-cancer activity. Cells are grown in 96 well plates and exposed to the test compound for 48 hours. Compounds are tested at a single concentration, which is 10^-5 M for most compounds. The reported endpoint is percent growth (GI% or GIPRCNT), where numbers from 0 - 100% represent growth inhibition, and numbers from -100% - 0 represent cell death. For example, a value of 40 represents 60% growth inhibition. […]
About 83,000 compounds went through this panel and 20% of them were active in at least one assay; those are over-represented in the sample as a whole. Calls of active or inactive are those of the source. How the source made its calls: active means growth percent below 10; inactive means the rest.
# valid calls are t = active, f = inactive; nothing else

Input line: # outcome recorded in this test, key = "Cc1ccc(N=c2nc3sc4c(C)ccc(C)c4n3c(N)c2C#N)cc1"
Output line: f

Input line: O=C(N/N=C/c1ccc2c(c1)OCO2)c1cnn2c1NC(c1ccccc1)C2 (stereo not given) , same question.
Output line: f

Input line: What do you get for "N#Cc1c(O)c2c(c(O)c1C#N)C(=O)c1ccccc1C2=O" ?
Output line: t

Input line: Would you mind doing COc1ccc(/C=N/NC(=O)c2cnn3c2NC(c2ccccc2)C3)cc1OC1CCCC1 (stereo not given) as well?
Output line: f

Input line: Also need "CC1=C(C/C=C(\C)CCC[C@H](C)CCC[C@H](C)CCCC(C)C)C(=O)c2ccccc2C1=O" , thanks.
Output line: f

Input line: Please do the same for "Cc1nc2cc(Nc3nc(Cl)nc(Nc4ccc(F)cc4)n3)ccc2n1Cc1ccccc1" as well.
Output line: f

Input line: Try "COc1cc2cc(Oc3ccc(NC(=O)Nc4ccc(Cl)c(C(F)(F)F)c4)cc3)c(C)nc2cc1OCCN1CCCCC1" next.
Output line: t

Input line: Please do the same for "Cc1ccc2c(N/N=C\c3ccco3)cc(C)nc2n1" as well.
Output line: f

Input line: Can you handle "CC1(C)N=C(N)N=C(N)N1c1cccc(/C=C/C=C/c2cccc([N+](=O)[O-])c2)c1" next?
Output line: f

Input line: Input "CCN(CC)CCCNc1ccc(C)c2sc3ccccc3c(=O)c12"
Output line: t

----------
Tested on: A498 renal
Test: NCI-60 one-dose screen, 48 h (100 = growth as untreated, 0 = no growth, -100 = all killed)
Settings: 10 µM unless noted
This is part of a sample that, as a whole, favours compounds with a hit. Of some 83,000 tested, about 20% had one in any assay.
Exercise: for every item that follows, state its recorded growth.
API: value field is a number in %; no unit string.

Input line: For "C=CC(=O)N1CC2(CC(n3nc(-c4ccc(Oc5ccccc5)cc4)c4c(N)ncnc43)C2)C1" , what is its reported growth?
Output line: -71.7

Input line: Proceed to CCCCc1ccc(C(O)(CCN2CC3CCC(CC3)C2)c2ccccc2)cc1 (configuration not stated)
Output line: 77

Input line: Now consider "N#Cc1ccc(C(F)(F)F)nc1N1CCC(C(=O)Nc2ccc(Cl)cc2)CC1" and answer again.
Output line: 64.2

Input line: Please give the result for "CC(=O)c1cc(C)c(OC(=O)c2ccccc2)c(C)c1" too.
Output line: 105

Input line: Now try "C=CC(=O)N1CC2(CCC(n3nc(-c4ccc(Oc5ccccc5)cc4)c4c(N)ncnc43)CC2)C1" .
Output line: -93.2

Input line: Request: O=C1CN2CCC1C/C2=C\c1ccnc2c(Cl)cccc12 (configuration not stated)
Output line: 159

Input line: Field entry: "O=C1c2ccccc2-c2nnc(-c3ccc(Br)cc3)cc21"
Output line: 97

Input line: Same question for "COc1cc(/C=C/c2cc(/C=C/c3ccc(O)c(OC)c3)n(-c3ccccc3)n2)ccc1O" please.
Output line: -25.2

Input line: Input "Cc1cc(Cl)c2c(Cl)ccc(Cl)c2n1"
Output line: 104

Input line: Now give it for "O=C(Nc1ccc(Cl)c(Cl)c1)NC(CO)(CO)CO" too.
Output line: 83.8

Input line: Entry to check: "Cc1nc2cc(Nc3nc(Nc4ccc(F)cc4)nc(N4CCCC4)n3)ccc2n1Cc1ccccc1"
Output line: -19.3

Input line: Another molecule to look at: "CSC1=CC(=O)c2ccccc2C1=O"
Output line: 91.5

Input line: Next: "COc1cccc(OC)c1OC(=O)c1ccccc1"
Output line: 85.6

Input line: Another molecule: "Nc1nc2c(s1)CCc1c-2c(Br)n(Cc2ccccc2)c1Br"
Output line: 91.5

Input line: Then "COc1ccc(/C=C2\CN(Cc3cn(CCCNc4ccnc5cc(Cl)ccc45)nn3)C/C(=C\c3ccc(OC)cc3)C2=O)cc1" ?
Output line: 52.9

Input line: Try the molecule "CN1CCN(C(=O)OCCOCCOC(=O)N2CCN(C)CC2)CC1"
Output line: 93

Input line: Same for "O=C(c1ccc2ncc(-c3nc(NC4CC4)ncc3F)n2c1)N1CCOCC1"
Output line: -30.3

Input line: Same question for "O=C(Nc1nc2ccccc2[nH]1)C(=O)Nc1nc2ccccc2[nH]1" please.
Output line: 99.1

Input line: And what about the molecule "NC(=O)c1nc2c([nH]c1=O)CCCC2" ?
Output line: 99.4

Input line: Lookup O=C(c1ccccc1)C(Br)C(Br)c1cccc([N+](=O)[O-])c1 (configuration not stated)
Output line: 48.2

Input line: Please answer likewise for "Brc1ccccc1Nc1ccc2nnc(-c3ccncc3)n2n1"
Output line: 101

Input line: Ok, now "Clc1ccc2c(N3CCN(c4ccnc(NC5CCCCC5)n4)CC3)ccnc2c1"
Output line: -40.7

----------
System: UACC-62 melanoma
Experiment: NCI-60 one-dose screen, 48 h (100 = growth as untreated, 0 = no growth, -100 = all killed)
Conditions: 10 µM unless noted
The panel holds about 83,000 compounds, 20% with a hit somewhere; the sample as a whole holds those more often.
quantityMeasured: growth (%)
Return type: number; implicit unit %.

Input line: Which growth is reported for this compound? "CN1CCN(CCCn2c3c(sc4ncccc43)c(=O)n3nnc(-c4ccccc4)c23)CC1"
Output line: 91

Input line: Also check "NS(=O)(=O)c1ccc(C(=O)N/N=C(\CS(=O)(=O)c2ccccc2)c2cc3cc(Br)ccc3o2)cc1"
Output line: 82

Input line: For "CCN(CC)c1ccc2c(c1)OS(=O)(=O)N=C2" then?
Output line: 101

Input line: Next entry: "Nc1ccccc1-c1n[nH]c(=O)[nH]c1=O"
Output line: 89

Input line: Quick one: "Cc1nc2cc(Nc3nc(N4CCCCC4)nc(N4CCOCC4)n3)ccc2n1Cc1ccccc1"
Output line: 32.1

----------
System: LOX IMVI melanoma
Experiment: NCI-60 one-dose screen, 48 h
Conditions: 10 µM unless noted
The panel holds about 83,000 compounds, 20% with a hit somewhere; the sample as a whole holds those more often. Calls of active or inactive are those of the source. The calls were made as follows: active = growth percent below 10; inactive = the rest.
Hi there, use one of these labels in your reply, thanks! t (active), f (inactive)

Input line: Field: outcome | Entry: "CC(C)OC1=C(Cl)C(=O)c2ccccc2C1=O"
Output line: f

Input line: Subsequent entry: "CCOC(=O)c1c(Cl)c2c(n1Cc1cc(OC)cc(OC)c1)-c1oncc1CCC2"
Output line: f

Input line: Similarly, "N#Cc1ccc(C(F)(F)F)nc1N1CCC(C(=O)Nc2ccc(Cl)cc2)CC1" ?
Output line: f

Input line: Check "CCOC(=O)c1cc2c(n(C)c1=O)-c1cnn(-c3ccc(OC)cc3)c1CC2" too.
Output line: f

Input line: Next: "COc1cc(NC(=O)COc2ccccc2)c(C(N)=O)cc1OC"
Output line: f

Input line: Similarly, "COc1ccc(-c2cc(=O)oc3c4c(ccc23)OCN(Cc2ccc(F)cc2)C4)cc1" ?
Output line: f

Input line: Please answer likewise for "COc1cc(-c2nc(SC(C)C)nc(Nc3ccccc3C)c2C#N)cc(OC)c1OC"
Output line: f

Input line: Then "Nc1nc2c(s1)CCc1c-2c(Br)n(Cc2ccccc2)c1Br" ?
Output line: f

Input line: Please give the result for "O=C1C(Br)=C(c2ccccc2)C(=O)C(Br)=C1c1ccccc1" too.
Output line: f

Input line: Same lookup for "Fc1ccccc1Nc1ccc2nnc(-c3ccncc3)n2n1" , please.
Output line: f

Input line: Next: "CN(C)C(=S)SCN1C(=O)c2ccc([N+](=O)[O-])cc2S1(=O)=O"
Output line: f

Input line: Follow-up item: "N#CCCN1CCN(CCC#N)C1=S"
Output line: f

Input line: What about COc1cccc(C2CC(=O)Nc3cc4c(cc32)CCC4)c1OC (stereo not given) ?
Output line: f

Input line: Try this compound next: "OB(O)c1ccccc1"
Output line: f

Input line: Same again, this time with O=C(NC1CC1)c1cc2n(n1)CC(c1ccccc1)N2 (stereo not given)
Output line: f

Input line: Now this one: "Nc1cc(Br)c(-c2nnc(CCC(=O)c3nc4ccccc4[nH]3)o2)c(Br)c1"
Output line: f

Input line: Could you do the same for CC1SC(c2cccc(Oc3ccccc3)c2)N(CCc2cccs2)C1=O (stereo not given) , please?
Output line: t

Input line: Follow-up item: "O=c1oc2ccccc2cc1-c1csc(N=Nc2c(O)[nH]c3ccc(Cl)cc23)n1"
Output line: f

Input line: And then "COc1cc(/C=C/C(=O)C(=Cc2ccc(F)c(F)c2)C(=O)/C=C/c2ccc(O)c(OC)c2)ccc1O" , what is it?
Output line: t

Input line: Follow-up entry: "COc1ccc(Nc2nc(NCCNc3ccnc4cc(Cl)ccc34)nc(N3CCOCC3)n2)cc1"
Output line: f

Input line: How about "C=C1CC[C@@H]2[C@@](C)(CCC[C@]2(C)C(=O)O)[C@@H]1CC[C@H](CO)CCO" ?
Output line: f

Input line: Queued: "Cc1cccc2c(=O)c3c(sc12)c(NCCNCCO)nc1ccccc13"
Output line: t

Input line: What about O=[N+]([O-])c1cc2c(cc1Br)C1C(C3C2C(Cl)(Cl)C(Cl)=C(Cl)C3(Cl)Cl)C(Cl)(Cl)C(Cl)=C(Cl)C1(Cl)Cl (stereo not given) ?
Output line: f

Input line: Also "O=c1oc2ccccc2cc1-c1csc(N=Nc2c(O)[nH]c3ccc(Br)cc23)n1" , if possible.
Output line: f

Input line: # iterate: "Clc1ccc(C2=NN(c3ccccc3)[C@H](c3cn(-c4ccccc4)nc3-c3ccccc3)C2)cc1"
Output line: f

Input line: // query: "O=[N+]([O-])c1ccc2nc(N/N=C/c3ccc(O)cc3)sc2c1"
Output line: f

Input line: Now give it for CC1(C)CC(=O)C2=C(C1)Nc1cc3c(cc1C2c1ccc(F)cc1)OCO3 (stereo not given) too.
Output line: f

Input line: Same for "O=C(c1ccc2ncc(-c3nc(NC4CC4)ncc3F)n2c1)N1CCOCC1"
Output line: t

Input line: Similarly, "Cc1nc2cc(Nc3nc(NCCO)nc(Nc4ccc(F)cc4)n3)ccc2n1Cc1ccccc1" ?
Output line: f

Input line: Do the same for "c1ccc(-c2n(Cc3ccc4ccccc4c3)c3ccccc3[n+]2Cc2ccc3ccccc3c2)cc1" please
Output line: t

Input line: Same question for "CCN(CC)c1ccc(/C=C(\C#N)c2cc3ccccc3[nH]2)cc1" please.
Output line: f

Input line: // same read-out, input: "Cc1c(C(=O)Nc2nc(-c3ccccc3)cs2)nnn1-c1ccccc1Br"
Output line: f

Input line: Now this one: "O=C(CCc1nnc2sc(-c3ccccc3)nn12)c1nc2ccccc2[nH]1"
Output line: f

Input line: Queued: "COc1ccc(OC2=CC(=O)c3ccc(C)nc3C2=O)cc1"
Output line: f

Input line: Do the same for COc1ccc(/C=N/NC(=O)c2cnn3c2NC(c2ccccc2)C3)cc1OC1CCCC1 (stereo not given) please
Output line: f

Input line: Next up: CCC(C)[C@H]1O[C@]2(CC[C@@H]1C)C[C@@H]1C[C@@H](C/C=C(\C)[C@@H](OC3C[C@H](OC)C(O[C@H]4C[C@H](OC)[C@@H](O)[C@H](C)O4)[C@H](C)O3)[C@@H](C)/C=C/C=C3\CO[C@@H]4[C@H](O)C(C)=C[C@@H](C(=O)O1)[C@]34O)O2 (stereo not given in full)
Output line: t

Input line: # repeat for "Oc1ccccc1/C=N/Nc1nc2ccccc2s1"
Output line: f

Input line: Same lookup for O=C(N/N=C/c1ccc(OC(F)F)c(OC2CCCC2)c1)c1cnn2c1NC(c1ccccc1)C2 (stereo not given) , please.
Output line: f

Input line: Also "CCOC(=O)n1cc(C2=C(c3cn(C)c4ccccc34)COC2=O)c2ccccc21" ?
Output line: f

Input line: Okay, and "COc1cc(C(F)(F)F)ccc1-c1cc(-c2ccc(F)cc2)n[nH]1" ?
Output line: f
